Entry source: the supplement of paper PMC10201428

Recorded relative integration efficiency (log2) values for a group of variants are listed next.
B1: library; a variant is named by its letters at N, in order (parent)
chain: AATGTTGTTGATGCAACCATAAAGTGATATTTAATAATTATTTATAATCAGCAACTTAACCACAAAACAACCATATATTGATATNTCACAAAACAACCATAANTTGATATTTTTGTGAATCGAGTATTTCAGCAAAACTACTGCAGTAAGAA

Variants of: B1
Experiment: relative integration efficiency (T-RL orientation) vs wild-type transposon end (log2 (normalized fold change)); transposon end mutated: left end; higher = more efficient transposition
Conditions: with VchCAST RNA-guided transposition machinery (E. coli BL21(DE3) host, lacZ target)
MEASUREMENT KIND: relative integration efficiency (log2)

MUTATION CODE	MEASUREMENT KIND	DATA VALUE
CG A75C	relative integration efficiency (log2)	0.219
CG T42A	relative integration efficiency (log2)	0.471
CG T6A	relative integration efficiency (log2)	-6.68
CG A19T T20A	relative integration efficiency (log2)	-1.12
CG A22C A23C G24T T25G	relative integration efficiency (log2)	-2.89
CG A1C A2C T3G G4T	relative integration efficiency (log2)	-0.346
CG T25A	relative integration efficiency (log2)	-0.346
TA A22T G24T T31C A33C T76A T78G C87A A96C T110A T113A	relative integration efficiency (log2)	-0.329
AG T31G T32G A33C T86G C87A T111G T112G T113G	relative integration efficiency (log2)	-1.07
CG A93T C94G A95T A96T	relative integration efficiency (log2)	-1.82
CG G106C	relative integration efficiency (log2)	-1.81
